Data credit: PubChem BioAssay AID248

Test system: L1210 leukemia ip in BDF1 mice, survival T/C
ASSAY DETAILS: NCI In Vivo Anticancer Drug Screen. Data for tumor model L1210 Leukemia (intraperitoneal) in B6D2F1 (BDF1) mice
CONDITION INFO: endpoint: mean survival time; dose: 200.0 mg/kg/injection; schedule: Q01DX001 (ip); vehicle: saline; higher = longer survival
Toxic doses and inconclusive results are not listed.
Readings of T/C for the listed molecules
RESULT TYPE: T/C

>>> val("C=CCc1ccc(OC(=O)Nc2ccc(S(=O)(=O)N(C)C)cc2)c(OC)c1")
"91 % of control"
>>> val("ClB(Cl)c1ccccc1")
"92 % of control"
>>> val("CCC(C(=O)O)=C1CCCCC1")
"95 % of control"
>>> val("CC(=O)OCC(OC(C)=O)C(OC(C)=O)C(OC(C)=O)C(C#N)OC(C)=O (stereo not drawn)")
"95 % of control"
>>> val("CC(=O)OC1CC2CCC1(S(=O)(=O)O)C2(C)C (stereo not drawn)")
"108 % of control"
>>> val("COC(=O)C1OC(CO)C(O)C1O (stereo not drawn)")
"113 % of control"
>>> val("Cc1ccc(C(=O)c2ccc(Cl)cc2)cc1")
"102 % of control"
>>> val("O=C(Nc1ccc(Cl)c(Cl)c1)NC(CO)(CO)CO")
"94 % of control"

====

System: L1210 leukemia ip in BDF1 mice, survival T/C
ASSAY DETAILS: NCI In Vivo Anticancer Drug Screen. Data for tumor model L1210 Leukemia (intraperitoneal) in B6D2F1 (BDF1) mice
CONDITION INFO: endpoint: mean survival time; dose: 400.0 mg/kg/injection; schedule: Q04DX003 (ip); vehicle: saline with Tween-80; higher = longer survival
Inconclusive results and toxic doses are left out.
Readings of T/C for the listed compounds
RESULT TYPE: T/C

>>> val("COc1ccc(-n2c(=S)[nH]c3ccc(C)cc3c2=O)cc1")
"90 % of control"
>>> val("O=C(C1=Cc2ccccc2OC1)N1CCN(C(=O)C2=Cc3ccccc3OC2)CC1")
"95 % of control"
>>> val("O=C(O)Cc1ccc(Br)cc1")
"102 % of control"
>>> val("CC(=O)Nc1c(C)cc(Cl)cc1Cl")
"98 % of control"
>>> val("O=C(Nc1ccccc1)Nn1cnc2ccccc2c1=O")
"88 % of control"
>>> val("CN(C)N=Nc1ccc(S(=O)(=O)Nc2ncccn2)cc1")
"105 % of control"
>>> val("CC(C)c1ccc(C(=O)CCCCl)cc1")
"92 % of control"
>>> val("NC(=O)n1ncnc1N")
"105 % of control"
>>> val("[O-][n+]1onc2c(-c3ccccc3)nnc(-c3ccccc3)c21")
"111 % of control"
>>> val("COc1ccc(C)cc1NC(=S)NC(=O)/C=C/c1ccccc1")
"91 % of control"
>>> val("S=C(N/N=C/c1ccc(-c2ccccc2)cc1)Nc1ccccc1")
"94 % of control"
>>> val("CC1(Cc2ccccc2)CCC(=O)O1 (centres undefined)")
"104 % of control"
>>> val("CCCCCCCCP(=O)(CCCCCCCC)C(O)C(Cl)(Cl)Cl (centres undefined)")
"92 % of control"
>>> val("CCOc1cc(-c2nc3ccccc3s2)ccc1O")
"96 % of control"
>>> val("COC(OC)c1cc(=O)[nH]c(NC(=O)C(Cl)Cl)n1")
"94 % of control"
>>> val("O=C(O)CCN(Cc1ccccc1)Cc1ccccc1")
"104 % of control"
>>> val("CCCCCCC(C)OC(=O)CCl (centres undefined)")
"109 % of control"
>>> val("O=C(OCC(O)C1OC(c2ccccc2)OC1C(O)COC(=O)c1ccccc1)c1ccccc1 (centres undefined)")
"89 % of control"
>>> val("CCCCN(CCCC)CC(O)c1cc(-c2cccc(I)c2)nc2c(Cl)cc(Cl)cc12 (centres undefined)")
"98 % of control"
>>> val("CCOC(=O)c1ccccc1N(O)C(=O)NC12CC3CC(CC(C3)C1)C2")
"94 % of control"
>>> val("Cc1cc(C(=O)O)c(C)cc1C(=O)O")
"98 % of control"
>>> val("Cc1ccc2nc(-c3cccc([N+](=O)[O-])c3)oc(=O)c2c1")
"97 % of control"
>>> val("COC(=O)C(O)c1cccc(OC)c1 (centres undefined)")
"105 % of control"
>>> val("CCOP(=O)(OCC)OCc1ccc(C)cc1")
"97 % of control"
>>> val("O=C(Nc1cccc(Cl)c1)c1ccc2ccccc2c1O")
"96 % of control"
>>> val("CC(=O)c1ccc2c(c1)-c1ccccc1C(=O)C2=O")
"91 % of control"
>>> val("CC1=CC(=O)C=CC1(C)C(Cl)Cl (centres undefined)")
"97 % of control"
>>> val("CC1(C)CCCC2(C)C3Cc4occc4C(C(=O)O)C3C(O)C(O)C12 (centres undefined)")
"98 % of control"
>>> val("COc1ccc(/C=C\\c2nc3ccccc3c(=O)[nH]2)cc1")
"95 % of control"
>>> val("O=S(=O)(CCCCCl)Nc1ccc(NS(=O)(=O)CCCCCl)cc1")
"92 % of control"
>>> val("CCCCOC(=O)CSC(=O)C(O)c1ccccc1 (centres undefined)")
"103 % of control"
>>> val("O=C(CSCc1ccccc1)c1ccccc1")
"100 % of control"
>>> val("CC(=O)Nc1ccc(-c2ccc(C)cc2)cc1")
"95 % of control"
>>> val("COc1cc(Oc2c(OC)cc(NC(C)=O)cc2OC)cc(OC)c1OC")
"95 % of control"

====

Test system: L1210 leukemia ip in BDF1 mice, survival T/C
ASSAY DETAILS: NCI In Vivo Anticancer Drug Screen. Data for tumor model L1210 Leukemia (intraperitoneal) in B6D2F1 (BDF1) mice
CONDITION INFO: endpoint: mean survival time; dose: 20.0 mg/kg/injection; schedule: Q01DX001 (ip); vehicle: saline; higher = longer survival
Toxic doses and inconclusive results are not listed.
Readings of T/C for the listed compounds
RESULT TYPE: T/C

>>> val("C/C(=N/N)c1ccc(Br)cc1")
"113 % of control"
>>> val("ClCCN(CCCl)CCNc1ccnc2cc(Cl)ccc12")
"117 % of control"
>>> val("O=C(c1ccc(C(=O)N(C2CCCCC2)C2CCCCC2)cc1)N(C1CCCCC1)C1CCCCC1")
"103 % of control"
>>> val("Oc1ccc([S+](c2ccc(O)cc2)c2ccc(O)cc2)cc1")
"107 % of control"
>>> val("CCCCCCCCCCCCCCC1=NCCN1")
"103 % of control"

====

Readings of T/C for the listed compounds
System: L1210 leukemia ip in BDF1 mice, survival T/C
ASSAY DETAILS: NCI In Vivo Anticancer Drug Screen. Data for tumor model L1210 Leukemia (intraperitoneal) in B6D2F1 (BDF1) mice
CONDITION INFO: endpoint: mean survival time; dose: 100.0 mg/kg/injection; schedule: Q01DX001 (ip); vehicle: saline with Tween-80; higher = longer survival
Inconclusive results and toxic doses are left out.
RESULT TYPE: T/C

>>> val("CC1(OC(=O)c2ccc([N+](=O)[O-])cc2)CC2CCC1C2 (configuration not stated)")
"98 % of control"
>>> val("CC(=O)N(C)c1ccc(NC(=S)NC(=O)c2cccc([N+](=O)[O-])c2)cc1")
"97 % of control"
>>> val("O=C(Oc1ccncc1)c1ccccc1")
"92 % of control"
>>> val("C1CCC(CCCC(CCCC2CCCC2)CCCC2CCCC2)C1")
"93 % of control"
>>> val("COC(=O)c1ccccc1NC(=S)NC(=O)C(C)Oc1ccccc1 (configuration not stated)")
"111 % of control"
>>> val("COc1cccc2c1C(=O)c1c(O)c3c(c(O)c1C2=O)CC(O)(C(C)=O)CC3OC1CC2NC(=O)OC2C(C)O1 (configuration not stated)")
"114 % of control"
>>> val("c1n[nH]c2c1CCCC2")
"89 % of control"

====

System: L1210 leukemia ip in BDF1 mice, survival T/C
ASSAY DETAILS: NCI In Vivo Anticancer Drug Screen. Data for tumor model L1210 Leukemia (intraperitoneal) in B6D2F1 (BDF1) mice
CONDITION INFO: endpoint: mean survival time; dose: 12.0 mg/kg/injection; schedule: Q01DX009 (ip); vehicle: Klucel (hydroxypropylcellulose) (HPC); higher = longer survival
Toxic doses and inconclusive results are not listed.
RESULT TYPE: T/C

>>> val("CCCCCCCCS.[Ni]")
"92 % of control"
>>> val("COc1ccc(C(=Nc2ccc(C)cc2)c2ccccc2)cc1")
"105 % of control"
>>> val("Cc1c(O)ccc(=O)n1O")
"107 % of control"
>>> val("Cc1ccc(NCC(O)CN2CCOCC2)cc1 (centres undefined)")
"93 % of control"
